# Experimental System: guinea pig Opioid, Kappa 1 Receptor (OpiateK), OPRK1 (gene 100135587)
# Assay Name: NVS_GPCR_gOpiateK: NovaScreen (NVS) G Protein-Coupled Receptor Assay for guinea pig Opioid, Kappa 1 Receptor (OpiateK) (AID 2283252);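 note: radioligand displacement from kappa opioid receptor in guinea pig cerebellar membranes; active means reduced radioligand binding relative to DMSO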
Results filed as inconclusive are left out. Activity calls are given as the source filed them. Rule for the calls: active = hit-call score of the fitted dose curve at least 0.9, where 1 is the maximum; inconclusive = response in the unintended direction; inactive = score below 0.9.
Outcome codes: active, inactive

1. COCCOC[C@H](CC1(C(=O)NC2CCC(C(=O)O)CC2)CCCC1)C(=O)Oc1ccc2c(c1)CCC2 (some centres undefined) :: inactive
2. CN1CCN(Cc2cc(-c3ccc4[nH]c(=O)oc4c3)co2)[C@@H](c2ccc(F)cc2)C1 :: inactive
3. CNCc1cc(F)ccc1Oc1ccc(Cl)c(Cl)c1 :: active
4. CCc1c(C(=O)NN2CCCCC2)nn(-c2ccc(Cl)cc2Cl)c1-c1ccc(Br)cc1 :: active

* * *

# Read-out: serum amyloid A (SAA), SAA1 (gene 6288)
# Assay Name: BSK_CASM3C_SAA: BioMAP Diversity Plus: CASM3C Assay for serum amyloid A (SAA) Biomarker Activity (AID 2283049);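 note: SAA protein level quantified by ELISA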
# Measurement Conditions: primary human coronary artery smooth muscle cells; actives raise or lower the signal
Activity calls are given as the source filed them. How the source made its calls: active means hit-call score of the fitted dose curve at least 0.9, where 1 is the maximum; inactive means score below 0.9.
Outcome codes: active, inactive

1. Oc1ccc2ccccc2c1N=Nc1ccccc1 :: inactive
2. Cc1cccc(C)c1O :: inactive
3. Cc1ccc2ncccc2c1 :: inactive
4. COc1cc(-c2nc(NC(=O)c3cc4cc(C)cc(C)c4n3CC(=O)O)sc2CCC2CCCCC2)c(OC)cc1Cl :: active
5. CCCc1cc(=O)[nH]c(=S)[nH]1 :: inactive
6. Cc1ccccc1Cl :: inactive
7. CCCCc1ccc2c(n1)[C@@H](c1ccc(OC)cc1C[C@H](C)C(=O)O)[C@H](C(=O)O)[C@H]2c1ccc2c(c1)OCO2 :: inactive
8. Cc1ccc(Cl)cc1 :: inactive
9. Cc1cccc([N+](=O)[O-])c1C :: inactive
10. NC(=O)Cn1c(=O)cc(CCN2CCN(c3nccc4sccc34)CC2)c2ccc(F)cc21 :: inactive
11. CCCCC(CC)COC(=O)CC(C(=O)OCC(CC)CCCC)S(=O)(=O)O (centres undefined) :: inactive
12. CCOC(=O)CCC(=O)OCC :: inactive
13. CCCCCCCCCCCCCCCCCC(=O)O :: inactive
14. Oc1ccc2c(c1)OC[C@@H](N1CCC(O)(c3ccc(F)cc3)CC1)[C@H]2O :: inactive
15. FC(F)(F)C(F)(F)C(F)(F)C(F)(F)C(F)(F)C(F)(F)CCI :: inactive
16. CCCCCCCCCCC :: inactive
17. CCCCCCCCCCCCCCCC :: inactive
18. CCCCCCOCCO :: inactive
19. CC(=O)OCCOCCOCCOC(C)=O :: inactive
20. Nc1ccccc1N :: inactive
21. CC(CO)OC(C)CO (centres undefined) (tested in a mixture with another compound) :: inactive
22. CCCCCCCCCCCCCO :: inactive
23. CC1=C(/C=C/C(C)=C/C=C/C(C)=C/CO)C(C)(C)CCC1 :: inactive
24. O=C(O)Cc1ccccc1Nc1c(Cl)cccc1Cl :: inactive
25. NCCO :: inactive
26. COC(=O)c1ccc(O)cc1 :: inactive
27. CCCCN(CCCC)CCCC :: inactive
28. COc1cc(S(=O)(=O)O)c(C)cc1N=Nc1c(O)ccc2cc(S(=O)(=O)O)ccc12 :: inactive
29. Cc1ccc(N(C)C)cc1 :: inactive

* * *

# Read-out: MYC, MYC (gene 4609)
# Assay Name: LTEA_HepaRG_MYC: Life Technologies and Expression Analysis (LTEA) Assay for MYC using HepaRG (AID 2283518)
# Measurement Conditions: mRNA level, 48 h; actives raise or lower the signal
Calls of active or inactive are those of the source. Rule for the calls: active = hit-call score of the fitted dose curve at least 0.9, where 1 is the maximum; inactive = score below 0.9.
Result Type: AC50

1. CNCc1cc(F)ccc1Oc1ccc(Cl)c(Cl)c1 :: 78.9 µM (active)
2. CCCCCCCCCCCCCCCC :: inactive
3. CC(C)(C)c1cc(O)c(C(C)(C)C)cc1O :: inactive
4. Cc1cc(=O)[nH]c(=S)[nH]1 :: inactive
5. NCC1(Cc2noc(=O)[nH]2)CCCCC1 :: inactive
6. Cc1cccc(Nc2cc(Cl)nc(SCC(=O)O)n2)c1C :: inactive
7. COCCOCCOC :: 0.966 µM (active)

* * *

# Read-out: Bcl-2 (BID) gene, BID (gene 637)
# Assay Name: LTEA_HepaRG_BID: Life Technologies and Expression Analysis (LTEA) Assay for Bcl-2 (BID) gene using HepaRG (AID 2283476)
# Measurement Conditions: mRNA level, 48 h; actives raise or lower the signal
Calls of active or inactive are those of the source. How the source made its calls: active means hit-call score of the fitted dose curve at least 0.9, where 1 is the maximum; inactive means score below 0.9.
Outcomes: active, inactive

1) CC(C)(C)c1cc(O)c(C(C)(C)C)cc1O :: active
2) CCOC(=O)C(C)(C)Oc1ccc(Cl)cc1 :: inactive
3) CCCCN(CCCC)CCCC :: inactive
4) CCCc1cc(=O)[nH]c(=S)[nH]1 :: inactive
5) Cc1ccc(C)c(C)c1 :: inactive
6) NC(=O)Cn1c(=O)cc(CCN2CCN(c3nccc4sccc34)CC2)c2ccc(F)cc21 :: inactive
7) COc1cc(S(=O)(=O)O)c(C)cc1N=Nc1c(O)ccc2cc(S(=O)(=O)O)ccc12 :: inactive
8) C[C@]12C=CC(=O)C=C1CC[C@@H]1[C@@H]2C(=O)C[C@@]2(C)[C@H]1CC[C@]2(O)C(=O)CO :: inactive
9) CCCCCCCCCCCC(=O)OC :: inactive
10) CCCCCCCC=O :: inactive
11) Nc1ccc2c(c1)C(=O)c1ccccc1C2=O :: inactive
12) COC(=O)c1ccc(O)cc1 :: inactive
13) Cc1cccc(C)c1O :: inactive

* * *

# Read-out: Monocyte Chemoattractant Protein-1 (MCP1), CCL2 (gene 6347)
# Assay Name: BSK_SAg_MCP1: BioMAP Diversity Plus: SAg Assay for Monocyte Chemoattractant Protein-1 (MCP1) Biomarker Activity (AID 2283090)
# Measurement Conditions: primary human HUVEC with PBMC; actives raise or lower the signal
The source made the active and inactive calls. The calls were made as follows: active = hit-call score of the fitted dose curve at least 0.9, where 1 is the maximum; inactive = score below 0.9.
Labels: 1 (yes) for active, 0 (no) for inactive

1) O=[N+]([O-])C(CO)(CO)CO :: 0 (no)
2) Cc1cccc([N+](=O)[O-])c1C :: 0 (no)
3) COCCOC[C@H](CC1(C(=O)NC2CCC(C(=O)O)CC2)CCCC1)C(=O)Oc1ccc2c(c1)CCC2 (stereo partly drawn) :: 0 (no)
4) Cc1ccc(C)c(C)c1 :: 0 (no)
5) CC1=C(/C=C/C(C)=C/C=C/C(C)=C/CO)C(C)(C)CCC1 :: 1 (yes)
6) CCCCc1ccc2c(n1)[C@@H](c1ccc(OC)cc1C[C@H](C)C(=O)O)[C@H](C(=O)O)[C@H]2c1ccc2c(c1)OCO2 :: 0 (no)
7) CCNc1cccc(C)c1 :: 0 (no)
8) CCCCCCCCCCC :: 0 (no)
9) Cc1ccc(C)c(O)c1C :: 0 (no)
10) CCCCCCCCCCCC(=O)OC :: 0 (no)
11) C[Si]1(C)O[Si](C)(C)O[Si](C)(C)O[Si](C)(C)O1 :: 0 (no)
12) c1cc(-c2ccncc2)ccn1 :: 0 (no)
13) C[C@]12C=CC(=O)C=C1CC[C@@H]1[C@@H]2C(=O)C[C@@]2(C)[C@H]1CC[C@]2(O)C(=O)CO :: 0 (no)

* * *

# Read-out: Cytochrome P450 4A22 (Homo sapiens) (UniProt Q5TCH4)
# Assay Name: LTEA_HepaRG_CYP4A22: Life Technologies and Expression Analysis (LTEA) Assay for Cytochrome P450 4A22 (CYP4A22) using HepaRG (AID 2283495)
# Measurement Conditions: mRNA level, 48 h; actives raise or lower the signal
The source made the active and inactive calls. Rule for the calls: active = hit-call score of the fitted dose curve at least 0.9, where 1 is the maximum; inactive = score below 0.9.
Outcomes: active, inactive

1) Nc1ccc2c(c1)C(=O)c1ccccc1C2=O :: active
2) Cc1nc(C)nc(N2C[C@@H](C)N(c3ccnc([C@@H](C)O)n3)[C@@H](C)C2)n1 :: active
3) CC(=O)OCCOCCOCCOC(C)=O :: inactive
4) Oc1ccc2c(c1)OC[C@@H](N1CCC(O)(c3ccc(F)cc3)CC1)[C@H]2O :: inactive
5) O=c1c(O)c(-c2ccc(O)c(O)c2)oc2cc(O)cc(O)c12 :: inactive
6) CCNc1cccc(C)c1 :: inactive
7) CCCCCCCCCCCCCCCCCC(=O)O :: inactive
8) CCCCCCC(=O)OCC :: inactive
9) CN[C@H]1CC[C@@H](c2ccc(Cl)c(Cl)c2)c2ccc(S(N)(=O)=O)cc21 :: active
10) Nc1nc(N)c2nc(CNc3ccc(C(=O)N[C@@H](CCC(=O)O)C(=O)O)cc3)cnc2n1 :: inactive
11) CCOc1ccc2c(c1)C(C)=CC(C)(C)N2 :: inactive
12) O=C(OCCCCCOC(=O)c1ccccc1)c1ccccc1 :: active
13) NC(=O)Cn1c(=O)cc(CCN2CCN(c3nccc4sccc34)CC2)c2ccc(F)cc21 :: active
14) CCOC(=O)CCC(=O)OCC :: inactive
15) O=C(N[C@@H](Cc1ccccc1)[C@@H](O)C(=O)N1C[C@@H](O)[C@@H](O)C1)c1cc2cc(Cl)ccc2[nH]1 :: active
16) Cc1ccc(N(C)C)cc1 :: inactive
17) COc1cc(C=O)ccc1O :: inactive
18) COc1ccc2c(c1)c(CC(=O)O)c(C)n2C(=O)c1ccc(Cl)cc1 :: inactive
19) Cc1ccc(Cl)cc1 :: inactive
20) CCCCCCCCCCCCCO :: inactive
21) CNC(=O)[C@H]1O[C@@H](n2cnc3c(NCc4cc(Cl)ccc4OCc4cc(C)no4)ncnc32)[C@H](O)[C@@H]1N :: inactive
22) CC(=O)OC/C=C(\C)CCC=C(C)C :: inactive
23) CN1CCN(Cc2cc(-c3ccc4[nH]c(=O)oc4c3)co2)[C@@H](c2ccc(F)cc2)C1 :: active
24) OC[C@@H](O)[C@@H](O)[C@H](O)[C@H](O)CO :: inactive
25) CC(C)c1ccc(C(=O)N=C(N)N)cc1S(C)(=O)=O :: active
